B1: HDV Ribozyme (parent)
chain: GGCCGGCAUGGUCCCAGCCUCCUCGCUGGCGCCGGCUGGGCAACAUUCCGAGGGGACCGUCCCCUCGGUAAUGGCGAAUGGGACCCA

# Variants of: B1
# assay: self-cleavage, relative activity (ratio to wild type); higher = more cleavage; co-transcriptional
reported endpoint: self-cleavage
One number for each entry.

[[record]]
variant = "C15G G25C"
data_value = 0


Hi, could you look up self-cleavage for each item in my list?
1. C58U C84A
2. G2A G50U
3. C3A C86G

Solution:
1: 1.02; 2: 0.0779; 3: 0.745

Below are 4 variants. Give each one its self-cleavage.
1. G2C G52A
2. U79G G82A
3. G6C C24G
4. C7A A56C

Solution:
1. 0.113
2. 0.0875
3. 0.151
4. 0.831

Give measured self-cleavage for every item shown.
1. C7U U37A
2. C58U C63G

Solution:
[0.0739, 0.831]

For each of the items listed, what is its self-cleavage?
1. U23C U72A
2. C58G C63G
3. C24A C32U
4. C13A C44A
5. C15U C57U

Solution:
[0.776, 0.91, 0.619, 0.119, 0.864]
